test system: Bacillus subtilis; experiment: cleaved RNA product abundance (RNA/gDNA barcode ratio) relative to median wild-type variant (ratio to wild type); higher = more accumulation of the downstream cleavage product; conditions: experiment (reporter, strain, medium): exp 4a: truncated aprE reporter, strain BJT201 with 2% xylose (RNase J1 expressed); cleavage site: cggR-gapA (positions -7 to +36 mutated)
Measured cleaved RNA product abundance values are reported for all entries that follow.
Lab note: jot down the number only; don't add units.

ACAGACGAAGGAGCCGCAAAGAAGTTATTAAGGGATGAATAATCCCTCAATATACATCTCTCTCACTTATTTAAA | 0.206
ACAGACGAAGGAGCCGCAAAGAAGTTATTTAGGGATGAATAATACCTCAATATAAATATCTCTCACTTATTTAAA | 0.141
ACAGACGAAGGAGCCGCAAAGAAGTTATTAAGGGATGAATAATCCCTTAAAATAAATATCTCTCACTTATTTAAA | 0.862
ACAGACGAAGGAGCCGCAAAGAATTTATTAAGGGATGAATAATCCCTCAATAAAAATATCTCTCACTTATTTAAA | 0.066
ACAGACGAAGGAGCCGCAAAGAAGTTATTAAGGGATGAATAAACCCTCACTATAAATATCTCTCACTTATTTAAA | 0.173
ACAGACGAAGGAGCCGCAAAGAATTTATTAAGGGATCAATAATCCCTCAATATAAATATCTCTCACTTATTTAAA | 0.73

**Q:** Determine its reported cleaved RNA product abundance: ACAGACGAAGGAGCCGCAAACAAGTTATTAATGGATGAATAATCCCTCAATATAAATATCTCTCACTTATTTAAA
**A:** 0.112

**Q:** Determine its reported cleaved RNA product abundance: ACAGACGAAGGAGCCGCAAAGAAGTTTTTAAGGGATGAATAATCCCTCAATATAAATATCTCTCACTTATTTAAA
**A:** 0.365

**Q:** Determine its reported cleaved RNA product abundance: ACAGACGAAGGAGCCGCAAAGAAGTTATTAAGGTATGAATAATCCCTCAATATATATATCTCTCACTTATTTAAA
**A:** 0.0867

**Q:** Determine its reported cleaved RNA product abundance: ACAGACGAAGGAGCCGCAAAGAAGTTATTAAGGGATGAATTATCCCTCATTATAAATATCTCTCACTTATTTAAA
**A:** 0.32

**Q:** Determine its reported cleaved RNA product abundance: ACAGACGAAGGAGCCGCAAATAAGTTATTATGGGATGAATAATCCCTCAATATAAATATCTCTCACTTATTTAAA
**A:** 0.365

**Q:** Determine its reported cleaved RNA product abundance: ACAGACGAAGGAGCCGCAAAGAATTTATTAAGGGATGAACAATCCCTCAATATAAAAATCTCTCACTTATTTAAA
**A:** 0.8

**Q:** Determine its reported cleaved RNA product abundance: ACAGACGAAGGAGCCGCAAAGAAGTTATTAAGGGATAAATAATCCTTCAATATAAATATCTCTCACTTATTTAAA
**A:** 0.338

**Q:** Determine its reported cleaved RNA product abundance: ACAGACGAAGGAGCCGCAAATAAGCTATTAAGGGATGAATAATCCCTCAATATAAATATCTCTCACTTATTTAAA
**A:** 0.149

**Q:** Determine its reported cleaved RNA product abundance: ACAGACGAAGGAGCCGCAAAGATGTTATTAAGGGATGAATAATCCCTGAATATAAATATCTCTCACTTATTTAAA
**A:** 0.628

====

system: Bacillus subtilis; assay: cleaved RNA product abundance (RNA/gDNA barcode ratio) relative to median wild-type variant (ratio to wild type); higher = more accumulation of the downstream cleavage product; conditions: experiment (reporter, strain, medium): exp 4a: truncated aprE reporter, strain BJT201 with 2% xylose (RNase J1 expressed); cleavage site: cggR-gapA (positions -7 to +36 mutated)
value_kind: cleaved RNA product abundance
Lab note: jot down the number only; don't add units.

Below are worked cases with known answers.
ACAGACGAAGGAGCCGCAAAGAAGTTATTAATGGATGAATAATTCATCAATATAAATATCTCTCACTTATTTAAA | 0.316
ACAGACGAAGGAGCCGCAAAGAAGTTATTAAGGTATGAATAATCCCTCCATATAAATATCTCTCACTTATTTAAA | 0.0967
ACAGACGAAGGAGCCGCAAAGAAGTAATTAAGGTATTAATAATCCCTCAATATAAATATCTCTCACTTATTTAAA | 0.0968
ACAGACGAAGGAGCCGCAAAGAAGTTATTAAGGGATGAATAATCCCTAAATATAAATATTTCTCACTTATTTAAA | 0.836
ACAGACGAAGGAGCCGCAAAGAAGATATTAAGGGATGATTAATCCCTCAATATAAATATCTCTCACTTATTTAAA | 0.803
ACAGACGAAGGAGCCGCAAAGAAGTTATTAGGGGATGACTAATCCCTCAATATAAATATCTCTCACTTATTTAAA | 0.63
ACAGACGAAGGAGCCGCAAAGAAGTAATTAAGGGATGAATAATCCCTCACTATAAATATCTCTCACTTATTTAAA | 0.168
ACAGACGAAGGAGCCGCAAAGAAGTTATTAAGGTATGAATAATCCCTCTATATAAATATCTCTCACTTATTTAAA | 0.11

**Q:** Determine its reported cleaved RNA product abundance: ACAGACGAAGGAGCCGCAAAGAAGTTATTAAGGGATGAATAGTCCCTAAATATAAATATCTCTCACTTATTTAAA
**A:** 0.547

**Q:** Determine its reported cleaved RNA product abundance: ACAGACGAAGGAGCCGCAAAGAAGTTATTAAGCGATTAATAATTCCTCAATATAAATATCTCTCACTTATTTAAA
**A:** 0.0664

**Q:** Determine its reported cleaved RNA product abundance: ACAGACGAAGGAGCCGCATAGAAGTTATTAAGGAATGAATAATCCCTCAATATAAATATCTCTCACTTATTTAAA
**A:** 0.135

**Q:** Determine its reported cleaved RNA product abundance: ACAGACGAAGGAGCCGCAAAGAAGTTATTAAGGGAAGAATAATCCCTGAATATAAATATCTCTCACTTATTTAAA
**A:** 0.374

**Q:** Determine its reported cleaved RNA product abundance: ACAGACGAAGGAGCCGCAAAGAAGTTATTAAGGGATGAATAATCCCTCAGTATAAATATCTCTCACTTATTTAAA
**A:** 0.305

**Q:** Determine its reported cleaved RNA product abundance: ACAGACGAAGGAGCCGCAAAGTAGTTATTAAGCGATGAATAATCCCTCAATATAAATATCTCTCACTTATTTAAA
**A:** 0.0692

**Q:** Determine its reported cleaved RNA product abundance: ACAGACGAAGGAGCCGCAAAGAAGTTATTAAGGGATTAATAATCCCTCAATATATATATCTCTCACTTATTTAAA
**A:** 0.957

====

test system: Bacillus subtilis; test: cleaved RNA product abundance (RNA/gDNA barcode ratio) relative to median wild-type variant (ratio to wild type); higher = more accumulation of the downstream cleavage product; settings: experiment (reporter, strain, medium): exp 2b: truncated aprE reporter, strain BJT200; cleavage site: cggR-gapA (positions -7 to +36 mutated)
Measured cleaved RNA product abundance values are reported for all entries that follow.
Lab note: jot down the number only; don't add units.

Below are worked cases with known answers.
ACAGACGAAGGAGCCGCAAAGAAGTTATTAAGGGATGAATAATACTTCAATATAAATATCTCTCACTTATTTAAA | 0.094
ACAGACGAAGGAGCCGCAGAGAAGTTATTAAGGGATGATTAATCCCTCAATATAAATATCTCTCACTTATTTAAA | 0.638
ACAGACGAAGGAGCCGCAAAGAACTTATTAATGGATGAATAATCCCTCAATATAAATATCTCTCACTTATTTAAA | 0.102
ACAGACGAAGGAGCCGCAAAGAAGTTATTAAGGCATGAATAATCCCTCATTATAAATATCTCTCACTTATTTAAA | 0.0915

**Q:** State recorded cleaved RNA product abundance with Bacillus subtilis, entry ACAGACGAAGGAGCCGCAAAGAAGTTCTTAAGGCATGAATAATCCCTCAATATAAATATCTCTCACTTATTTAAA , no comment.
**A:** 0.092

**Q:** State recorded cleaved RNA product abundance with Bacillus subtilis, entry ACAGACGAAGGAGCCGCAAAGAAGTTATTAAGATATGAATAATCCCTCAATATAAATATCTCTCACTTATTTAAA , no comment.
**A:** 0.0758

**Q:** State recorded cleaved RNA product abundance with Bacillus subtilis, entry ACAGACGAAGGAGCCGCAAAGAAGTTATGAAGGAATGAATAATCCCTCAATATAAATATCTCTCACTTATTTAAA , no comment.
**A:** 0.139
